Hey, just so you know, these numbers are from ChEMBL document CHEMBL1150977.

Below, each of the compounds is paired with its reported pKd value.
- tested.on: Citron Rho-interacting kinase (Homo sapiens)
pKd: −log10 of the molar value.

| compound.structure | pKd |
| --- | --- |
| NC(=O)c1ccc(-c2nc(-c3ccc4c(c3)OCO4)c(-c3ccccn3)[nH]2)cc1 | < 5.00 |

Exam item: What reported pKd corresponds to "Nc1nc(Nc2ccc(S(N)(=O)=O)cc2)nn1C(=O)c1c(F)cccc1F" on Citron Rho-interacting kinase (Homo sapiens)?
Marked response: < 5.00

Exam item: Report pKd for "COCC(=O)NC/C=C/c1ccc2ncnc(Nc3ccc(Oc4ccc(C)nc4)c(C)c3)c2c1" tested on Citron Rho-interacting kinase (Homo sapiens).
Marked response: < 5.00

###

- tested.on: eIF-2-alpha kinase GCN2 (Homo sapiens, UniProt Q9P2K8, S808G)
- Sequence (Q9P2K8 whole entry S808G): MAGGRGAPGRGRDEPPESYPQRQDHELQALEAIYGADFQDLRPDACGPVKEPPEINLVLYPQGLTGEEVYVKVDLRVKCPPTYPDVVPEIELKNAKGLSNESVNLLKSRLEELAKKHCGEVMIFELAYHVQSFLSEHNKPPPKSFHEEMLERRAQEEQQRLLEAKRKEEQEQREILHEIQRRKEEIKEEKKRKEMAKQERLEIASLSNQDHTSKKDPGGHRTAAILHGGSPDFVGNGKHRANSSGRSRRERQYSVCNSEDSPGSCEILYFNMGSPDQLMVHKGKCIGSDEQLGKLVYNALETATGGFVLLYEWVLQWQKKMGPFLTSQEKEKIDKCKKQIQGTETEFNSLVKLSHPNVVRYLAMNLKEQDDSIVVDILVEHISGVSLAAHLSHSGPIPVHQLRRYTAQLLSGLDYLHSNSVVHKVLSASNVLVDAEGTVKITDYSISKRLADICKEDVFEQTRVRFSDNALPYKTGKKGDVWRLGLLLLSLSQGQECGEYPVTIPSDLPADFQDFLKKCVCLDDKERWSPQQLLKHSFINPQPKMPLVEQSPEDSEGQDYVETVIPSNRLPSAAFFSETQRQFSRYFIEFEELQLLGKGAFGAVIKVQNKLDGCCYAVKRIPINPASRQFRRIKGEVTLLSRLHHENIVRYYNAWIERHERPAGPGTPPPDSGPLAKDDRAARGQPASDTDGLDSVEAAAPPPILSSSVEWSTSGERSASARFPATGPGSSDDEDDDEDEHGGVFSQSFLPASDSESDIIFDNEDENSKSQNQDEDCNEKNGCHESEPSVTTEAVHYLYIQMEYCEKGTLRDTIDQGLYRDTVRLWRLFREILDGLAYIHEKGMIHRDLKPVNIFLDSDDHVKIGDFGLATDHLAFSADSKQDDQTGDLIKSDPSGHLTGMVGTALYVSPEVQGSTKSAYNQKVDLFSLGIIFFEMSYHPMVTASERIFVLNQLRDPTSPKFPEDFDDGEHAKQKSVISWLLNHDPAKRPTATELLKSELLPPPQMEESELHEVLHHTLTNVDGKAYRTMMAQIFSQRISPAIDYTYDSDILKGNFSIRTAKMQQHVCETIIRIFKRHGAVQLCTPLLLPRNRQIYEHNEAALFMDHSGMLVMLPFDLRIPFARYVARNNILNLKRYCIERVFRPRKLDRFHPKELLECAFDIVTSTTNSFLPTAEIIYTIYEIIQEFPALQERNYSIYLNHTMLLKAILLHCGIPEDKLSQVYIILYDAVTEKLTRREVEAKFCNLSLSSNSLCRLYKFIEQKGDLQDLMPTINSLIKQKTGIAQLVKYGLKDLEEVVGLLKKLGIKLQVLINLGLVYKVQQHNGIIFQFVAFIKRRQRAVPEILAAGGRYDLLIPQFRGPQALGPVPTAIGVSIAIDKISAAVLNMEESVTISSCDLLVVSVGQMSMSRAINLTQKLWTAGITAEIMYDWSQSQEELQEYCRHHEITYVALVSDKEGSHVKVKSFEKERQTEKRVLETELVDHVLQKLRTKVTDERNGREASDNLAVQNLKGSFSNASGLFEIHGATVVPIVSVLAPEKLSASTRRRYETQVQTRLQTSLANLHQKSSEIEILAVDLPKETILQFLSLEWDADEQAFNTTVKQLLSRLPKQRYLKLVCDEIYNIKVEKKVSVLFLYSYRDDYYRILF
property.name: Kd

Completed entries (count: 2):
| compound.structure | Kd |
| --- | --- |
| COCC(=O)NC/C=C/c1ccc2ncnc(Nc3ccc(Oc4ccc(C)nc4)c(C)c3)c2c1 | > 10 µM |
| Oc1ccc(-c2nc(-c3ccncc3)c(-c3ccc(F)cc3)[nH]2)cc1 | > 10 µM |

Please examine the following record next.
Exam item: Value lookup for Kd; key = "NC(=O)c1ccc(-c2nc(-c3ccc4c(c3)OCO4)c(-c3ccccn3)[nH]2)cc1"
Marked response: > 10 µM

###

Hi! I'm sharing some Kd results obtained with Activin receptor type-2B (Homo sapiens, UniProt Q13705).
Sequence (Q13705 whole entry): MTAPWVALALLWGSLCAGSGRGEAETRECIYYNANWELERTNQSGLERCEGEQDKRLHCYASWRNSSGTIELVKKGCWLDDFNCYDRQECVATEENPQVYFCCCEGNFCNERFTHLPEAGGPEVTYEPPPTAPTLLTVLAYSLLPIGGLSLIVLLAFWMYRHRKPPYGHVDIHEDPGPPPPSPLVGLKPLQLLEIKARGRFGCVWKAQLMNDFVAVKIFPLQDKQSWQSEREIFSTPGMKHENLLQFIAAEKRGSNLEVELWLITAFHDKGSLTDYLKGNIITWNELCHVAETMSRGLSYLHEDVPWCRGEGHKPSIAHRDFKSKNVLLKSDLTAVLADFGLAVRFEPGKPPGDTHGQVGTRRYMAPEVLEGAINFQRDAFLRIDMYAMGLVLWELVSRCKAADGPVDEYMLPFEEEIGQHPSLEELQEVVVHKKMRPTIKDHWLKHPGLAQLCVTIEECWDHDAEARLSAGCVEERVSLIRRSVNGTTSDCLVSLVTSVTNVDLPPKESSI

Worked cases, Kd given:
| compound.structure | endpoint.result |
| --- | --- |
| COCC(=O)NC/C=C/c1ccc2ncnc(Nc3ccc(Oc4ccc(C)nc4)c(C)c3)c2c1 | > 10 µM |
| NC(=O)c1ccc(-c2nc(-c3ccc4c(c3)OCO4)c(-c3ccccn3)[nH]2)cc1 | > 10 µM |

With those in mind, consider the next molecule.
Exam item: Param readout = Kd; param system = Activin receptor type-2B (Homo sapiens, UniProt Q13705); param query = "CCOc1cc2ncc(C#N)c(Nc3ccc(F)c(Cl)c3)c2cc1NC(=O)/C=C/CN(C)C" ; response: value
Marked response: > 10 µM

###

Let's go through some Kd measurements on Serine/threonine-protein kinase TNNI3K (Homo sapiens) together.
Sequence (Q59H18 whole entry): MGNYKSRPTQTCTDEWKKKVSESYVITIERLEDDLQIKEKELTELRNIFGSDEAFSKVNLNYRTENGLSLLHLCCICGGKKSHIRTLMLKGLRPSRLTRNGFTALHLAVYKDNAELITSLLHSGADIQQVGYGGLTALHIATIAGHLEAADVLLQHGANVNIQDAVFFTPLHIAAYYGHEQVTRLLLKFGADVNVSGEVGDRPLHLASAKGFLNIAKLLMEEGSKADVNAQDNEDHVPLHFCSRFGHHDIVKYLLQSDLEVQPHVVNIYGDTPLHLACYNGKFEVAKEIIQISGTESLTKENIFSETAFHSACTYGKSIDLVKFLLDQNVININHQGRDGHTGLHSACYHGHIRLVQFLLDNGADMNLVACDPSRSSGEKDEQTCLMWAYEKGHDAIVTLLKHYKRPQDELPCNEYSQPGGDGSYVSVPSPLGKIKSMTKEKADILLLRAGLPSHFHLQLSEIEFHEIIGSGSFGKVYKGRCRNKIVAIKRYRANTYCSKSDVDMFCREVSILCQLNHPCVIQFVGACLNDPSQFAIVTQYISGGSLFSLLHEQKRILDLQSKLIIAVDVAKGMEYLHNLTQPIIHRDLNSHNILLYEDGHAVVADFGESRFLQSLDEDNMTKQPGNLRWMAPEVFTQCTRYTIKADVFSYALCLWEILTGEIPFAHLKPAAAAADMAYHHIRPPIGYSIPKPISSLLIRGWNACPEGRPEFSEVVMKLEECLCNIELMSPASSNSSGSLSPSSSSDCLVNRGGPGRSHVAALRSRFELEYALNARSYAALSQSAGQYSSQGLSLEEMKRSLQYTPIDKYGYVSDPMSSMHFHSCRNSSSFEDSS

For orientation, consider the following solved cases.
| compound.structure | Kd |
| --- | --- |
| COCC(=O)NC/C=C/c1ccc2ncnc(Nc3ccc(Oc4ccc(C)nc4)c(C)c3)c2c1 | > 10 µM |
| Oc1ccc(-c2nc(-c3ccncc3)c(-c3ccc(F)cc3)[nH]2)cc1 | > 10 µM |

Here is another molecule to look at.
Exam item: Identify the measured Kd of "NC(=O)c1ccc(-c2nc(-c3ccc4c(c3)OCO4)c(-c3ccccn3)[nH]2)cc1" for Serine/threonine-protein kinase TNNI3K (Homo sapiens).
Marked response: > 10 µM

###

Kd tested on Serine/threonine-protein kinase 32B (Homo sapiens): recorded values
Sequence (Q9NY57 whole entry): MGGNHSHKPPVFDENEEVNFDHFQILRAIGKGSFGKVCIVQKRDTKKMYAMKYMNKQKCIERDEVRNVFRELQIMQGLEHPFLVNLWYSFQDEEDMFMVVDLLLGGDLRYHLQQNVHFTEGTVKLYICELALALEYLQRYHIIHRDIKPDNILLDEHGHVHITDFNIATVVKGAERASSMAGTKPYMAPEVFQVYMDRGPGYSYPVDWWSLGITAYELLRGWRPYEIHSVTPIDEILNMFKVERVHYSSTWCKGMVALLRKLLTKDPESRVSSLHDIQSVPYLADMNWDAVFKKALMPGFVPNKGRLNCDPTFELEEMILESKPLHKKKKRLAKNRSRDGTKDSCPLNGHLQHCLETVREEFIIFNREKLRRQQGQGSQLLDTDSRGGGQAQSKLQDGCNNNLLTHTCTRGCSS

| compound | tested.on | Kd |
| --- | --- | --- |
| NC(=O)c1ccc(-c2nc(-c3ccc4c(c3)OCO4)c(-c3ccccn3)[nH]2)cc1 [SB-431542] | Serine/threonine-protein kinase 32B (Homo sapiens) | > 10 µM |

Exam item: Sample Nc1nc(Nc2ccc(S(N)(=O)=O)cc2)nn1C(=O)c1c(F)cccc1F [JNJ-7706621] — what was its Kd?
Marked response: > 10 µM

Exam item: I'd like to know its Kd. The compound in question is COCC(=O)NC/C=C/c1ccc2ncnc(Nc3ccc(Oc4ccc(C)nc4)c(C)c3)c2c1 [CP-724714]
Marked response: > 10 µM
